- Test system: BT-549 breast
- Measurement Notes: NCI tumour cell line growth inhibition, 48 h
Below: a set of entries, each annotated with reported TGI.
Report the figure in µM without appending any unit label.

COC1C(C)OC(OC2CC(C)(O)Cc3cc4c(c(O)c32)C(=O)c2c(O)cc3c(c2C4=O)OC2OC3(C)C(O)C(N(C)C)C2O)C(OC)C1(C)OC (stereo not given) | 0.00655

Pending molecule:
For O=C(Nc1ccc(Cl)cc1)c1cc2ccccc2cc1OP(=O)(O)O the molecule record lists TGI as 9.24

###

- System: UACC-257 melanoma
- Measurement Notes: NCI tumour cell line growth inhibition, 48 h
Readout Label: TGI

// worked examples, TGI included
Cc1ccnc(NC(c2ccccc2)c2ccc3cccnc3c2O)c1 (stereo unspecified) | 9.9 µM
CN(CCCCN)c1ccc2c(=O)[nH][nH]c(=O)c2c1 | > 100 µM
COc1ccc(Oc2nc3c(N)cc(C(F)(F)F)cc3nc2-c2ccccc2)cc1 | > 100 µM
CCSc1[nH]c(NC(=NC(C)C)NC(=O)c2ccccc2)c(C(N)=O)c1C(N)=O | > 10 µM

For CC(C)(N)C(=O)N[C@@H]1C(=O)N2[C@@H]1SC(C)(C)[C@@H]2C(=O)O the compound record lists TGI as > 100 µM

For COc1ccc(/C=C(\C2=NC(=O)CS2)c2nc3ccccc3[nH]2)cc1 the compound record lists TGI as > 100 µM

For CP(=O)(O)C(N)c1ccccc1 (stereo unspecified) the compound record lists TGI as > 100 µM

For COc1ccc(Nc2ncccc2C(=O)NCc2cn(Cc3cccc(Oc4ccccc4)c3)nn2)c(OC)c1 the compound record lists TGI as > 100 µM

For COc1cc(CC(=O)c2cc3c(cc2-c2ccccc2)OCO3)cc(OC)c1OC the compound record lists TGI as > 100 µM

For COC(=O)CN(CC1O[C@@H]2OC(C)(C)O[C@@H]2C1NC(C)=O)C(=O)OCc1ccccc1 (stereo partly specified) the compound record lists TGI as > 100 µM

For O=C(Nc1nc(-c2ccccc2Cl)cs1)c1cc(-c2ccc(Cl)cc2)nc2ccc(Cl)cc12 the compound record lists TGI as > 100 µM

For CCc1n[nH]c(=O)n1N=C(c1ccccc1)c1ccccc1 the compound record lists TGI as > 100 µM

###

Below: a set of entries, each annotated with reported TGI.
- System: OVCAR-3 ovarian
- Measurement Notes: NCI tumour cell line growth inhibition, 48 h
Report the figure in µM without appending any unit label.

Field TGI (system: OVCAR-3 ovarian) for entry COc1cc(/C=C2\CC3C4CCC5=CC(=O)CC[C@]5(C)C4CC[C@]3(C)C2=O)ccc1OCCN1CCCCC1 (stereo partly specified) = 4.59

Field TGI (system: OVCAR-3 ovarian) for entry COc1cc(/C=C/c2ccc(S(N)(=O)=O)cc2)cc(OC)c1 = 33.2

Field TGI (system: OVCAR-3 ovarian) for entry CNC(=O)c1cc(Oc2ccc3nc(NC(=O)Nc4cc(C(F)(F)F)cc(C(F)(F)F)c4)sc3c2)ccn1 = 2.27

###

Below: a set of entries, each annotated with reported TGI.
- Test system: RPMI-8226 leukemia
- Measurement Notes: NCI tumour cell line growth inhibition, 48 h
Report the figure in µM without appending any unit label.

// worked examples, TGI included
O=C1c2c(F)c(F)c(F)c(F)c2SC2=Nc3cccc4cccc(c34)N12 | 8.02
O=C(O)CCCc1cc2c(s1)-c1cccc3cccc-2c13 | 72.5

For O=C(c1ccccc1)c1c2n(c3c1cc(O)c1ccccc13)CCN2 the compound record lists TGI as 6.47

###

- System: MOLT-4 leukemia
- Measurement Notes: NCI tumour cell line growth inhibition, 48 h
Readout Label: TGI

CC(=O)CC12NC(=O)N(C)N=C1N(C)C(=O)N(C)C2=O (stereo unspecified) | > 100 µM
CCOC(=O)C1=C(O)c2ccc(OC)cc2C(=O)C1=O | > 100 µM
CN(C)CCOc1ccc2[nH]c(C(=O)N3CC(CCl)c4ccc(N)cc43)cc2c1 (stereo unspecified) | 0.0565 µM
O=C1NC(Cc2ccccc2)C(=O)N2CCCC12 (stereo unspecified) | > 100 µM
COC(=O)C1=C(C)NC2=C(C(=O)c3ccccc32)C1c1cn[nH]c1-c1ccccc1 (stereo unspecified) | > 100 µM

For CCOC(=O)[C@@]12NN=N[C@@H]1[C@H]1CO[C@H](c3ccccc3)N1C2=O the molecule record lists TGI as > 100 µM

For CN1C(=O)[C@@H]2[C@@H]3c4ccccc4N[C@@H]3c3[nH]c4ccccc4c3[C@@H]2C1=O the molecule record lists TGI as 55.6 µM

###

- Test system: EKVX NSCLC
- Measurement Notes: NCI tumour cell line growth inhibition, 48 h; in the data active = GI50 below about 0.43 µM; inactive = the rest
Thanks in advance; please answer with one of these: 1 (active), -1 (inactive)

COC1=CC(c2ccc[nH]2)=N/C1=C\c1[nH]c(C)c(C)c1CCC(=O)OCc1ccccc1 | 1
COc1cc(/C=C2\CC3C4CCC5=CC(=O)CC[C@]5(C)C4CC[C@]3(C)C2=O)ccc1OCCN1CCCCC1 (stereo not given in full) | -1
CNC(=O)c1cc(Oc2ccc3nc(NC(=O)Nc4cc(C(F)(F)F)cc(C(F)(F)F)c4)sc3c2)ccn1 | -1
O=C(Nc1ccc(Cl)cc1)c1cc2ccccc2cc1OP(=O)(O)O | -1

Turning to the following compound.
Write down the call the test reported for this compound. Item: CN1CCN(Cn2nc(-c3cc(F)c(Cl)cc3Cl)oc2=S)CC1
-1

###

- Tested on: NCI-H23 lung
- Measurement Notes: NCI tumour cell line growth inhibition, 48 h
Readout Label: TGI

// worked examples, TGI included
CCOC(=O)C1=C(C)N(c2ccc(Cl)cc2)C2(O)C=CC(Nc3ccc(Cl)cc3)=C3C(=O)N(c4ccccc4)C(=O)C312 (stereo not given) | 20 µM
C/C(CC(=O)Nc1cccc(C)c1C)=N\NC(N)=S | > 100 µM
O=C(NCCCl)NCc1ccccc1 | > 100 µM
O=C(O)C1C2CCC(O2)C1C(=O)NCc1cccnc1 (stereo not given) | > 100 µM
Cc1cc(=O)[nH]c(NNC(C#N)c2ccc(N(C)C)cc2)n1 (stereo not given) | > 100 µM

Pending molecule:
Field TGI (system: NCI-H23 lung) for entry C/C(CC(=O)Nc1ccc([N+](=O)[O-])cc1)=N\Nc1ccc([N+](=O)[O-])cc1[N+](=O)[O-] = > 100 µM

###

- Tested on: NCI-H522 lung
- Measurement Notes: NCI tumour cell line growth inhibition, 48 h
Readout Label: TGI

// worked examples, TGI included
Cc1cc(N)c2cc(NC(=O)Nc3ccc4nc(C)cc(N)c4c3)ccc2n1 | > 100 µM
NCCN(CCN)/[N+]([O-])=N/O | > 100 µM
CC(=O)N1CCN(CCCCN2c3ccccc3Sc3cc(N=[N+]=[N-])ccc32)CC1 | 26.3 µM
C1C[S][Ge]2([S]CCS1)[S]CCSCC[S]2 | > 100 µM

Pending compound:
For COc1cc2oc(-c3ccc(O)cc3)cc(=O)c2c(OC)c1O the compound record lists TGI as > 100 µM

###

- Tested on: OVCAR-4 ovarian
- Measurement Notes: NCI tumour cell line growth inhibition, 48 h
Readout Label: GI50

// worked examples, GI50 included
COC1/C=C/OC2(C)Oc3c(C)c(O)c4c(O)c(c(C=NOC(c5ccccc5)c5ccccc5)c(O)c4c3C2=O)NC(=O)/C(C)=C/C=C/C(C)C(O)C(C)C(O)C(C)C(OC(C)=O)C1C (centres undefined) | 1.63 µM
N/C(=N\C(N)=N\c1nc2ccccc2s1)c1ccnc(Br)c1 | 7.83 µM
COc1ccc(Nc2ncccc2C(=O)NCc2cn(Cc3cccc(Oc4ccccc4)c3)nn2)c(OC)c1 | 5.27 µM
C1C[S][Ge]2([S]CCS1)[S]CCSCC[S]2 | > 100 µM
COc1cccc(/C=C2\CCc3ccccc3C2=O)c1 | 13.7 µM

Field GI50 (system: OVCAR-4 ovarian) for entry ClCc1ccc(-c2ccc(Cn3cnc4c(Cl)ncnc43)cc2)cc1 = 1.46 µM

Field GI50 (system: OVCAR-4 ovarian) for entry NC(CS)C(=O)NCCNc1ccc(NCCNC(=O)C(N)CS)c2c1C(=O)c1c(O)ccc(O)c1C2=O (centres undefined) = 0.109 µM

Field GI50 (system: OVCAR-4 ovarian) for entry CCCCCCn1c2c(c3c(O)cccc31)C(=O)c1ccccc1-2 = 25 µM

Field GI50 (system: OVCAR-4 ovarian) for entry CCOC(=O)Nc1cc(-c2ccc(C)c(NS(C)(=O)=O)c2)nn2c(C)nnc12 = 0.735 µM

###

- Test system: SN12C renal
- Measurement Notes: NCI tumour cell line growth inhibition, 48 h
Below: a set of entries, each annotated with reported TGI.

// worked examples, TGI included
COC(=O)CC1NC(=O)C1C(C)(OC)OC (stereo not given) | > 100 µM
C=CCCCC(O)c1ccc(C(O)c2cnc3ccccc3c2)o1 (stereo not given) | 90.9 µM
C[C@H]1CCC2C(CN3CCCCC3)C(=O)OC2[C@]2(C)C(=O)CC(N3CCCCC3)C12O (stereo not given in full) | 14.8 µM
O=c1cc(NNc2cccc(F)c2)[nH]c(=S)[nH]1 | > 100 µM
O=C(CC(=O)N1N=C(c2ccccc2)C(N=Nc2ccccc2Cl)C1=O)Nc1ccccc1Cl (stereo not given) | > 100 µM

For COc1ccc(OC)c(-c2cc(=O)c3cc4c(cc3[nH]2)OCO4)c1 the compound record lists TGI as > 87.5 µM

For O=C(CSc1nnc(-c2ccc(N=Cc3ccc(Cl)cc3)cc2)o1)Nc1cccc([N+](=O)[O-])c1 the compound record lists TGI as > 100 µM

For CCN(CC)CC(O)c1cc(-c2ccc(Cl)cc2)nc2cc(Cl)ccc12 (stereo not given) the compound record lists TGI as 12.7 µM

For N#Cc1c(O)c(C=O)c(=O)n2c1[nH]c1ccccc12 the compound record lists TGI as > 100 µM

For Cc1ccc(Cc2n[nH]c(=O)n2N2C(=O)c3ccccc3C2=O)cc1 the compound record lists TGI as > 100 µM
